Listed next: entries and their corresponding pKd.
Target: T1, …-biotin (C-terminal biotin)
T1 construct: also called DAKD-b; DAKD-biotin
Assay: Biacore, biotin-peptide on SA chip;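 note: purified antibodies injected as twofold dilutions from 0.1 to 10 nM in HBS-EP over streptavidin-captured biotinylated BKR1 or BKR2 ligand peptides, with a random-peptide flow cell as reference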
Keep in mind that pKd stands for -log10 of concentration in molar terms.

INSERT INTO results (binder, readout, quantitativeresult) VALUES
  ('humanized F151 variant HC2c/LC2b (antibody, human IgG1, V domains shown, also called LC2bxHC2c) VH: QIQLVQSGAEVKKPGASVKVSCKASGYSFTDYNIYWVKQSPGKGLEWIGYFDPYNGNTGYNQKFRGKATLTVDKSSSTAYMHLSSKTSEESAVYYCANYYRYDDHAMDYWGQGTSVTVSS VL: DIVMTQSPSSLSASVGDRVTISCKSSQSLLYSSNQKNYLAWYQQKPGKSPKPLIYWASTRESGVPDRFSGSGSGTDFTLTISSVQAEDKATYYCQQYYSYPWTFGGGTKLEIK', 'pKd', 10.05);

**Q:** Sample humanized F151 variant HC1/LC1 (antibody, V domains shown, also called LC1xHC1) VH: EIQLVQSGPEVKKPGASVKVSCKASGYSFTDYNIYWVKQSPGKSLEWIGYFDPYNGNTGYNQKFRGKATLTVDKSSSTAFMHLSSLTSEDSAVYYCANYYRYDDHAMDYWGQGTSVTVSS VL: DIVMSQSPSSLAASVGDRVTMSCKSSQSLLYSSNQKNYLAWYQQKPGKSPKPLIYWASTRESGVPDRFTGSGSGTDFTLTISSVQAEDLAIYYCQQYYSYPWTFGGGTKLEIK — what was its pKd?
**A:** 10.84

**Q:** Sample humanized F151 variant HC2b/LC2a (antibody, human IgG1, V domains shown, also called LC2axHC2b) VH: QIQLVQSGAEVKKPGASVKVSCKASGYSFTDYNIYWVKQSPGKGLEWIGYFDPYNGNTGYNEKFRGKATLTVDKSSSTAYMHLSSLTSEESAVYYCANYYRYDDHAMDYWGQGTSVTVSS VL: DIVMTQSPSSLSASVGDRVTISCKSSQSLLYSSNQKNYLAWYQQKPGKSPKPLIYWASTRESGVPDRFSGSGSGTDFTLTISSVQAEDLATYYCQQYYSYPWTFGGGTKLEIK — what was its pKd?
**A:** 10.59

**Q:** Sample humanized F151 variant HC2a/LC2a (antibody, human IgG1, V domains shown, also called LC2axHC2a) VH: QIQLVQSGAEVKKPGASVKVSCKASGYSFTDYNIYWVKQSPGKGLEWIGYFDPYNGNTGYNQKFRGKATLTVDKSSSTAYMHLSSLTSEESAVYYCANYYRYDDHAMDYWGQGTSVTVSS VL: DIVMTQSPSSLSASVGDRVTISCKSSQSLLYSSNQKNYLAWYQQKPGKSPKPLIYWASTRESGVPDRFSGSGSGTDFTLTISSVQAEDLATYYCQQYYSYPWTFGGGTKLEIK — what was its pKd?
**A:** 10.74
